- system: Pantothenate synthetase (Mycobacterium tuberculosis (strain ATCC 25618 / H37Rv)) (UniProt P9WIL5)
- Sequence (P9WIL5 whole entry, looked up): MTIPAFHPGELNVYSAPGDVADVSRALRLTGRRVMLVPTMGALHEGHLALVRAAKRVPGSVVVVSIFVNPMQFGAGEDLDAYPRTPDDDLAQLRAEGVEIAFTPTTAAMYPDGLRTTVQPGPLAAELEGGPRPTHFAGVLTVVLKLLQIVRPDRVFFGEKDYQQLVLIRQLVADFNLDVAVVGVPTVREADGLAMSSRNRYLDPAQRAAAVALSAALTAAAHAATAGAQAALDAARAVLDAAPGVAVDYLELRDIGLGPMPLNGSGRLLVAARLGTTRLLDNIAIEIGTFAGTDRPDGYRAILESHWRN
- test-protocol: Coupled enzyme confirmation of inhibitors against recombinant Mtb PanC (AID 375);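 note: 0% = full reaction with vehicle and 100% = no enzyme background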
- details: coupled enzyme assay; at 10 µM, hits give high values
test-readout: inhibition (%)

* Nc1nonc1-c1noc(CCCCCN2C(=O)c3ccccc3C2=O)n1 | 4
* CCOc1nc(OCC)nc(N2CCC(C)CC2)n1 | 0
* COCC(C)NC(=O)NC(=O)c1ccc(Cl)cc1 (centres undefined) | 0
* Cc1cc(O)c(C(C)C)cc1N=C1CSC(=O)N1 | 0
* CCOc1cccc(N2C(=O)CC(=O)NC2=O)c1 | 0
* COc1cccc(NC(=O)Nc2cccs2)c1 | 0
* CCC(=O)Nc1cc(C(=O)NCC2CCCN2CC)c(OC)cc1N(C)C (centres undefined) | 0
* C=CCn1c(=O)c2ccccc2n2c(SC(C)C(=O)Nc3nc(-c4ccccc4)cs3)nnc12 (centres undefined) | 4
* Cc1noc(/C=C/N(C)C)c1S(=O)(=O)N1CCCC(C(=O)NC2CCCCC2)C1 (centres undefined) | 8
* Nc1cccc(C(=O)O)c1 | 0
* N#CC1=C(N)N(c2ccc(Oc3ccccc3)cc2)C(=O)C1 | 2
* CCCSC1=C(C#N)C(c2ccccc2OCC)CC(=O)N1 (centres undefined) | 7
* Cn1c(SCC(N)=O)nnc1C1CCN(S(=O)(=O)c2ccccc2C(F)(F)F)CC1 | 0
* COc1cccc(Cn2c(-c3nonc3N)nc3ccccc32)c1 | 0
* C=CCOc1ccc(C2C(C(=O)c3ccco3)=C(O)C(=O)N2Cc2cccnc2)cc1 (centres undefined) | 0
* Cc1noc(C)c1COc1cccc(C(=O)Nc2ccc(C#N)cc2)c1 | 0
* Cn1nnnc1SCC(=O)Nc1ccccc1-c1ccccc1 | 2
* O=C1CN(c2nc3ccccc3n3cnnc23)CC(=O)N1CCc1ccccc1 | 4
* O=C(Cn1cccc1C(=O)c1ccccc1)NCCN1CCOCC1 | 0
* O=C(c1ccc(=O)[nH]c1)N(Cc1ccco1)C1(C(=O)NC2CCCC2)CCCCC1 | 0
* CCCSc1nnc2nc3c(nn12)c1ccccc1n3C | 0
* COc1ccc(C2CC(=O)C(C=NCCN3CCOCC3)=C(O)C2)cc1 (centres undefined) | 0
* CN(CC(O)COCc1cccs1)C1CCCCC1 (centres undefined) | 1
* O=C1C2C3C=CC(C3)C2C(=O)N1Cc1ccccc1 (centres undefined) | 6

====

- system: Pantothenate synthetase (Mycobacterium tuberculosis (strain ATCC 25618 / H37Rv))
- test-protocol: Coupled enzyme confirmation of inhibitors against recombinant Mtb PanC (AID 375);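 note: 0% = full reaction with vehicle and 100% = no enzyme background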
- details: coupled enzyme assay; at 10 µM, hits give high values
test-readout: inhibition (%)

• COc1cc2c(cc1OC)-c1cc(Nc3ccc4c(c3)OCCO4)nc(=O)n1CC2 = 2
• COc1ccc(C(N)=O)cc1N = 0
• COc1ccc(C2C(C(C)=O)=C(C)N=c3s/c(=C/c4ccc5c(c4)OCO5)c(=O)n32)cc1 (centres undefined) = 0
• COC(=O)Cn1c(=NC(=O)CSCC(=O)Nc2cc(C)on2)sc2ccccc21 = 0
• CCOCCCNC(=O)Cn1ncc2c(=O)oc3ccccc3c21 = 0
• CCOc1ccc(C(=O)Nc2cc(C)on2)cc1OCC = 6
• O=C(NCCN1CCOCC1)C1CCC(=O)N1Cc1ccccc1Cl (centres undefined) = 0
• O=S1(=O)CC(N2CCCCC2)C(N2CCCCC2)C1 (centres undefined) = 6
• COc1ccc(C)cc1S(=O)(=O)Nc1cccnc1 = 0
• Cc1nc2nc(-c3cccnc3)nn2c(C)c1Cl = 0
• COc1cc(NC(=O)Cc2cccs2)ccc1-n1cnnn1 = 10
• O=C1CCN(C(=O)c2ccccc2)C2CCCCC12 (centres undefined) = 0
• Cc1ccc(C(=O)C2CN3CCC2CC3)cc1 (centres undefined) = 0
• ON1C2CCCCC2N(O)C1c1c(F)c(F)c(F)c(F)c1F (centres undefined) = 7
• C/C=C/COC(=O)c1[nH]c2c(c1C)C(=O)CC(c1ccco1)C2 (centres undefined) = 6
• CCN(CC)c1nc2nonc2nc1N(CC)CC = 0
• COc1ccc(S(=O)(=O)Nc2ccc(F)c(Cl)c2)cc1OC = 0
• Cn1c(=O)c2nc(Cl)n(Cc3ccc(Cl)cc3Cl)c2n(C)c1=O = 6
• CC(C)OP(=O)(c1ccc(N(C)C)cc1)C(O)c1ccccc1F (centres undefined) = 0
• CCOC(=O)C(C)(C)Sc1nc2c(cnn2-c2ccc(Cl)cc2)c(=O)[nH]1 = 0
• COc1ccc(C(C)NC(=O)c2ccoc2C)cc1OC (centres undefined) = 5
• C=CCn1c(O)c(C=NCCN(C)C)c(=O)[nH]c1=O = 0
• O=C(CSc1nnc(-c2c[nH]c3ccccc23)o1)N(Cc1ccccc1)c1ccc(F)cc1 = 0
• CN1CCN(/C=N/c2sc3c(c2C#N)CCCCC3)CC1 = 4
